The values you see were collected from patent US20260193293A1.

SYSTEM NAME: Sushi domains (SD1/2) protein of the GABAB1a (GB1a) subunit, recombinant
Sequence (Q9Z0U4 29-158): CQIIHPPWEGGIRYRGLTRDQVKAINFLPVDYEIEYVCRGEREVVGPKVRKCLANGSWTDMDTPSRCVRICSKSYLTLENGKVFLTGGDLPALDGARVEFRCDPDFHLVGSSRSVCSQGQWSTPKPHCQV
ASSAY NAME: FP competition
Non-standard residues stand in square brackets, D forms with d. Cya = N[C@@H](CS(=O)(=O)O)C(=O)O; NMeD = CN[C@@H](CC(=O)O)C(=O)O; NMeV = CN[C@H](C(=O)O)C(C)C
METRIC NAME: Ki (nM)
Give bare numbers, in nM.

>>> recorded_value("Ac-ED[NMeD]SDVWWGGADTD-NH2 (SMILES CC(=O)N[C@@H](CCC(=O)O)C(=O)N[C@@H](CC(=O)O)C(=O)N(C)[C@@H](CC(=O)O)C(=O)N[C@@H](CO)C(=O)N[C@@H](CC(=O)O)C(=O)N[C@H](C(=O)N[C@@H](Cc1c[nH]c2ccccc12)C(=O)N[C@@H](Cc1c[nH]c2ccccc12)C(=O)NCC(=O)NCC(=O)N[C@@H](C)C(=O)N[C@@H](CC(=O)O)C(=O)N[C@H](C(=O)N[C@@H](CC(=O)O)C(N)=O)[C@@H](C)O)C(C)C) [ED(N-Me-D)…]")
671
>>> recorded_value("Ac-EDDSDVWWGGADTA-NH2")
786
>>> recorded_value("Ac-EDDDWIDWYDSDDDEAAAKRRRRRRRR-NH2 [16-RL-R8 (…)]")
100

Please state, for each entry, its recorded Ki.
1. Ac-PWAI[NMeV]WGPTVSRED-NH2 (SMILES CC[C@H](C)[C@H](NC(=O)[C@H](C)NC(=O)[C@H](Cc1c[nH]c2ccccc12)NC(=O)[C@@H]1CCCN1C(C)=O)C(=O)N(C)[C@H](C(=O)N[C@@H](Cc1c[nH]c2ccccc12)C(=O)NCC(=O)N1CCC[C@H]1C(=O)N[C@H](C(=O)N[C@H](C(=O)N[C@@H](CO)C(=O)N[C@@H](CCCNC(=N)N)C(=O)N[C@@H](CCC(=O)O)C(=O)N[C@@H](CC(=O)O)C(N)=O)C(C)C)[C@@H](C)O)C(C)C) [PWAI(N-Me-V)…]
2. Ac-EEDDSDVWWGGA-NH2
3. Ac-ETEFI[Cya]WGPTGDED-NH2 (SMILES CC[C@H](C)[C@H](NC(=O)[C@H](Cc1ccccc1)NC(=O)[C@H](CCC(=O)O)NC(=O)[C@@H](NC(=O)[C@H](CCC(=O)O)NC(C)=O)[C@@H](C)O)C(=O)N[C@@H](CS(=O)(=O)O)C(=O)N[C@@H](Cc1c[nH]c2ccccc12)C(=O)NCC(=O)N1CCC[C@H]1C(=O)N[C@H](C(=O)NCC(=O)N[C@@H](CC(=O)O)C(=O)N[C@@H](CCC(=O)O)C(=O)N[C@@H](CC(=O)O)C(N)=O)[C@@H](C)O) [Ac-ETEFI(Cya)WGPTGDED-NH2 (AJAP-1WT mutant Ala182Cya)]

Result ::
1. 7000
2. 1020
3. 11.8
